Origin of values: patent US20220411362A1

Assay Remarks: Pharmacokinetic study, intravenous bolus injection in rats
Format: in vivo
Condition Description: Sprague Dawley, plasma, rat, dose 0.2 mg/kg, 1 hour post dose, read-out: Concentration in Rat Plasma after Bolus Injection, Mean
Observed Property: concentration at 1 hour (ng/mL)
Respond with the bare value in ng/mL.

// query concentration at 1 hour value for entry CC1=C[C@H]2[C@@]3(O)[C@H](C)C[C@]4(OC(=O)[C@@H](N)CC5CCCCC5)[C@H]([C@@H]3C=C(CO)C[C@]2(O)C1=O)C4(C)C
37.6

---

Assay Remarks: Pharmacokinetic study, intravenous bolus injection in rats
Assay type: in vivo
Condition Description: Sprague Dawley, rat plasma, 0.2 mg/kg
Method: Pharmacokinetic (PK) studies were conducted for compounds described in this disclosure, and the PK study of K101-C1327 administered by intravenous injection in rats is given as an example. Briefly, K101-C1327 was dissolved in a pH 5 buffer solution at the concentrations of 2.0 mg/mL, and diluted to 0.04 and 0.08 mg/mL to achieve the doses of 0.1 and 0.2 mg/kg with a dosing volume of 2.5 mL/kg, respectively. […] The drug concentrations at each time point were determined by LC-MS. […]
Observed Property: half-life
Kindly write the number and append the unit.

// query half-life value for entry CC1=C[C@H]2[C@@]3(O)[C@H](C)C[C@]4(OC(=O)[C@@H](N)CC5CCCCC5)[C@H]([C@@H]3C=C(CO)C[C@]2(O)C1=O)C4(C)C [Compound K101-C1327]
2.29 h

---

Assay Remarks: Pharmacokinetic study, intravenous bolus injection in rats
Format: in vivo
Condition Description: Sprague Dawley, plasma, rat, dose 0.1 mg/kg, 0.0833 hour post dose, read-out: Concentration in Rat Plasma after Bolus Injection, Mean
Observed Property: concentration at 0.0833 hour
Kindly write the number and append the unit.

// query concentration at 0.0833 hour value for entry CC1=C[C@H]2[C@@]3(O)[C@H](C)C[C@]4(OC(=O)[C@@H](N)CC5CCCCC5)[C@H]([C@@H]3C=C(CO)C[C@]2(O)C1=O)C4(C)C [Compound K101-C1327]
49.2 ng/mL

---

Target Or Test System: C1b domain of human PKCα (Homo sapiens)
Construct: Genes encoding C1b domains of human PKCα, δ, ε, θ, and PKD1 (PKCμ) were synthesized; made in house; host or cells: E. coli BL21(DE3)
Assay Remarks: biochemical
Type: binding
Condition Description: Ki PKCα, 3H-PDBu competition
pKi: −log10 of the molar value.
Observed Property: pKi

Worked cases, pKi given:
[[record]]
compound = "CC1=C[C@H]2[C@@]3(O)[C@H](C)C[C@]4(OC(=O)[C@@H](N)CC5CCC5)[C@H]([C@@H]3C=C(CO)C[C@]2(O)C1=O)C4(C)C"
observed_property = "pKi"
endpoint_value = "5.22 to 5.40"

[[record]]
compound = "CC1=C[C@H]2[C@@]3(O)[C@H](C)C[C@]4(OC(=O)[C@H](N)CC5CCCCC5)[C@H]([C@@H]3C=C(CO)C[C@]2(O)C1=O)C4(C)C"
observed_property = "pKi"
endpoint_value = "5.70 to 6.00"

[[record]]
compound = "CC1=C[C@H]2[C@@]3(O)[C@H](C)C[C@]4(OC(=O)[C@@H](N)C5Cc6ccccc6C5)[C@H]([C@@H]3C=C(CO)C[C@]2(O)C1=O)C4(C)C"
observed_property = "pKi"
endpoint_value = "7.22 to 7.52"

[[record]]
compound = "CC1=C[C@H]2[C@@]3(O)[C@H](C)C[C@]4(OC(=O)[C@@H](N)Cc5c[nH]c6ccccc56)[C@H]([C@@H]3C=C(CO)C[C@]2(O)C1=O)C4(C)C"
observed_property = "pKi"
endpoint_value = "6.40 to 6.70"

[[record]]
compound = "CC1=C[C@H]2[C@@]3(O)[C@H](C)C[C@]4(OC(=O)CCCCCCCCCCCC(=O)O)[C@H]([C@@H]3C=C(CO)C[C@]2(O)C1=O)C4(C)C"
observed_property = "pKi"
endpoint_value = "< 5.10"


// query pKi value for entry CC1=C[C@H]2[C@@]3(O)[C@H](C)C[C@]4(OC(=O)[C@H](N)Cc5ccccc5)[C@H]([C@@H]3C=C(CO)C[C@]2(O)C1=O)C4(C)C
5.40 to 5.70

// query pKi value for entry CC1=C[C@H]2[C@@]3(O)[C@H](C)C[C@]4(OC(=O)CC5CC6(C5)CN(C(=O)OC(C)(C)C)C6)[C@H]([C@@H]3C=C(CO)C[C@]2(O)C1=O)C4(C)C
6.70 to 7.00

// query pKi value for entry CC1=C[C@H]2[C@@]3(O)[C@H](C)C[C@]4(O)[C@H]([C@@H]3C=C(CO)C[C@]2(O)C1=O)C4(C)C [Compound K101-C13OH]
< 5.10

// query pKi value for entry CSCC[C@H](N)C(=O)O[C@@]12C[C@@H](C)[C@@]3(O)[C@@H](C=C(CO)C[C@]4(O)C(=O)C(C)=C[C@@H]34)[C@@H]1C2(C)C
5.40 to 5.70

// query pKi value for entry CN[C@@H](CC1CCCCC1)C(=O)O[C@@]12C[C@@H](C)[C@@]3(O)[C@@H](C=C(CO)C[C@]4(O)C(=O)C(C)=C[C@@H]34)[C@@H]1C2(C)C
6.40 to 6.70

// query pKi value for entry CC1=C[C@H]2[C@@]3(O)[C@H](C)C[C@]4(OC(=O)CCc5ccccn5)[C@H]([C@@H]3C=C(CO)C[C@]2(O)C1=O)C4(C)C
5.10 to 5.22
